# assay overview: Plasma pharmacokinetics (LC-MS/MS)
# Type: in vivo, human
# measurement conditions: human, plasma, oral, 100 mg, C1D1, 100 mg QD, n=2; read-out: AUCinf, Mean (SD)
reported property: AUC(0-inf) (ng·h/mL)
Numbers only, in ng·h/mL.

Quick note, AUC(0-inf) for "CC1(N)CCN(c2cccnc2NC(=O)c2nc(-c3ncccc3C(F)(F)F)cnc2N)CC1" landed at 8640

###

# assay overview: Plasma pharmacokinetics (LC-MS/MS)
# Type: in vivo, human
# measurement conditions: human, plasma, oral, 400 mg, C1D1, 400 mg BID, n=5; read-out: Cmax, Mean (SD)
reported property: Cmax (ng/mL)
Answers are plain numbers, in ng/mL.

Quick note, Cmax for "CC1(N)CCN(c2cccnc2NC(=O)c2nc(-c3ncccc3C(F)(F)F)cnc2N)CC1" landed at 4350

###

# assay overview: Plasma pharmacokinetics (LC-MS/MS)
# Assay type: in vivo, human
# measurement conditions: human, plasma, oral, 300 mg, C1D15, 300 mg QD, n=14; read-out: Cmin, Median (Min, max)
reported property: concentration at 15 day (ng/mL)
Numbers only, in ng/mL.

Quick note, concentration at 15 day for "CC1(N)CCN(c2cccnc2NC(=O)c2nc(-c3ncccc3C(F)(F)F)cnc2N)CC1" landed at 326

###

# assay overview: Plasma pharmacokinetics (LC-MS/MS)
# Assay type: in vivo, human
# measurement conditions: human, plasma, oral, 300 mg, C1D1, 300 mg QD, n=15; read-out: Cmax, Mean (SD)
# Protocol: In the dose escalation part of the study, PK samples were collected at various pre- and post-dose time points on C1D1, D2, D3, D15 and D16. Drug concentrations were assessed using a validated liquid chromatography-tandem mass spectrometry assay.
reported property: Cmax (ng/mL)
Numbers only, in ng/mL.

Quick note, Cmax for "CC1(N)CCN(c2cccnc2NC(=O)c2nc(-c3ncccc3C(F)(F)F)cnc2N)CC1" landed at 5580

###

# assay overview: Plasma pharmacokinetics (LC-MS/MS)
# Assay type: in vivo, human
# measurement conditions: human, plasma, oral, 200 mg, C1D15, 200 mg QD, n=3; read-out: AUC0-t, Median (Min, max)
reported property: AUC(0-t) (ng·h/mL)
Answers are plain numbers, in ng·h/mL.

Quick note, AUC(0-t) for "CC1(N)CCN(c2cccnc2NC(=O)c2nc(-c3ncccc3C(F)(F)F)cnc2N)CC1" landed at 13800

###

# assay overview: Plasma pharmacokinetics (LC-MS/MS)
# Format: in vivo, human
# measurement conditions: human, plasma, oral, 800 mg, C1D1, 800 mg QD, n=1; read-out: AUCinf, Median (Min, max)
reported property: AUC(0-inf) (ng·h/mL)
One number for each entry, in ng·h/mL.

Quick note, AUC(0-inf) for "CC1(N)CCN(c2cccnc2NC(=O)c2nc(-c3ncccc3C(F)(F)F)cnc2N)CC1" landed at 66200

###

# assay overview: Plasma pharmacokinetics (LC-MS/MS)
# Assay type: in vivo, human
# measurement conditions: human, plasma, oral, 500 mg, C1D1, 500 mg QD, n=10; read-out: AUCinf, Median (Min, max)
reported property: AUC(0-inf)
Returns: string containing the number followed by the unit.

Quick note, AUC(0-inf) for "CC1(N)CCN(c2cccnc2NC(=O)c2nc(-c3ncccc3C(F)(F)F)cnc2N)CC1" landed at 61700 ng·h/mL

###

# assay overview: Plasma pharmacokinetics (LC-MS/MS)
# Format: in vivo, human
# measurement conditions: human, plasma, oral, 800 mg, C1D1, 800 mg QD, n=1; read-out: Cmax, Median (Min, max)
reported property: Cmax (ng/mL)
One number for each entry, in ng/mL.

Quick note, Cmax for "CC1(N)CCN(c2cccnc2NC(=O)c2nc(-c3ncccc3C(F)(F)F)cnc2N)CC1" landed at 6080

###

# assay overview: Plasma pharmacokinetics (LC-MS/MS)
# Type: in vivo, human
# measurement conditions: human, plasma, po; read-out: Mean terminal half-life (T1/2), range across dose groups
reported property: half-life

Quick note, half-life for "CC1(N)CCN(c2cccnc2NC(=O)c2nc(-c3ncccc3C(F)(F)F)cnc2N)CC1" landed at 8.49 to 13.8 h

###

# assay overview: Plasma pharmacokinetics (LC-MS/MS)
# Assay type: in vivo, human
# measurement conditions: human, plasma, oral, 100 mg, C1D15, 100 mg QD, n=3; read-out: Cmax, Mean (SD)
reported property: Cmax (µg/mL)
Numbers only, in µg/mL.

Quick note, Cmax for "CC1(N)CCN(c2cccnc2NC(=O)c2nc(-c3ncccc3C(F)(F)F)cnc2N)CC1" landed at 1.19

###

# assay overview: Plasma pharmacokinetics (LC-MS/MS)
# Format: in vivo, human
# measurement conditions: human, plasma, oral, 800 mg, C1D1, 800 mg QD, n=1; read-out: AUC0-t, Mean (SD)
reported property: AUC(0-t) (ng·h/mL)
Answers are plain numbers, in ng·h/mL.

Quick note, AUC(0-t) for "CC1(N)CCN(c2cccnc2NC(=O)c2nc(-c3ncccc3C(F)(F)F)cnc2N)CC1" landed at 54300

###

# assay overview: Plasma pharmacokinetics (LC-MS/MS)
# Format: in vivo, human
# measurement conditions: human, plasma, oral, 200 mg, C1D15, 200 mg BID, n=5; read-out: Cmax, Mean (SD)
reported property: Cmax (ng/mL)
Give bare numbers, in ng/mL.

Quick note, Cmax for CC1(N)CCN(c2cccnc2NC(=O)c2nc(-c3ncccc3C(F)(F)F)cnc2N)CC1 [LXS196] landed at 2910

###

# assay overview: Plasma pharmacokinetics (LC-MS/MS)
# Format: in vivo, human
# measurement conditions: human, plasma, oral, 400 mg, C1D1, 400 mg BID, n=5; read-out: AUCinf, Geo-mean
reported property: AUC(0-inf)
Returns: string containing the number followed by the unit.

Quick note, AUC(0-inf) for "CC1(N)CCN(c2cccnc2NC(=O)c2nc(-c3ncccc3C(F)(F)F)cnc2N)CC1" landed at 28400 ng·h/mL

###

# assay overview: Plasma pharmacokinetics (LC-MS/MS)
# Format: in vivo, human
# measurement conditions: human, plasma, oral, 500 mg, C1D1, 500 mg QD, n=10; read-out: T1/2, Geo-mean (converted)
# Description: In the dose escalation part of the study, PK samples were collected at various pre- and post-dose time points on C1D1, D2, D3, D15 and D16. Drug concentrations were assessed using a validated liquid chromatography-tandem mass spectrometry assay.
reported property: half-life (h)
One number for each entry, in h.

Quick note, half-life for "CC1(N)CCN(c2cccnc2NC(=O)c2nc(-c3ncccc3C(F)(F)F)cnc2N)CC1" landed at 10.1

###

# assay overview: Plasma pharmacokinetics (LC-MS/MS)
# Type: in vivo, human
# measurement conditions: human, plasma, oral, 300 mg, C1D15, 300 mg QD, n=13; read-out: AUC0-t, Geo-mean
reported property: AUC(0-t)

Quick note, AUC(0-t) for CC1(N)CCN(c2cccnc2NC(=O)c2nc(-c3ncccc3C(F)(F)F)cnc2N)CC1 [LXS196] landed at 26500 ng·h/mL

###

# assay overview: Plasma pharmacokinetics (LC-MS/MS)
# Type: in vivo, human
# measurement conditions: human, plasma, oral, 200 mg, C1D15, 200 mg BID, n=5; read-out: AUC0-t, Geo-mean
reported property: AUC(0-t) (ng·h/mL)
Answers are plain numbers, in ng·h/mL.

Quick note, AUC(0-t) for "CC1(N)CCN(c2cccnc2NC(=O)c2nc(-c3ncccc3C(F)(F)F)cnc2N)CC1" landed at 15400

###

# assay overview: Plasma pharmacokinetics (LC-MS/MS)
# Format: in vivo, human
# measurement conditions: human, plasma, oral, 200 mg, C1D1, 200 mg QD, n=3; read-out: Cmax, Geo-mean
reported property: Cmax (µg/mL)
Give bare numbers, in µg/mL.

Quick note, Cmax for "CC1(N)CCN(c2cccnc2NC(=O)c2nc(-c3ncccc3C(F)(F)F)cnc2N)CC1" landed at 3.41

###

# assay overview: Plasma pharmacokinetics (LC-MS/MS)
# Assay type: in vivo, human
# measurement conditions: human, plasma, oral, 100 mg, C1D15, 100 mg QD, n=2; read-out: AUC0-t, Mean (SD)
reported property: AUC(0-t) (ng·h/mL)
One number for each entry, in ng·h/mL.

Quick note, AUC(0-t) for "CC1(N)CCN(c2cccnc2NC(=O)c2nc(-c3ncccc3C(F)(F)F)cnc2N)CC1" landed at 10400

###

# assay overview: Plasma pharmacokinetics (LC-MS/MS)
# Assay type: in vivo, human
# measurement conditions: human, plasma, oral, 300 mg, C1D15, 300 mg BID, n=12; read-out: AUC0-t, Mean (SD)
reported property: AUC(0-t) (ng·h/mL)
Give bare numbers, in ng·h/mL.

Quick note, AUC(0-t) for "CC1(N)CCN(c2cccnc2NC(=O)c2nc(-c3ncccc3C(F)(F)F)cnc2N)CC1" landed at 19100

###

# assay overview: Plasma pharmacokinetics (LC-MS/MS)
# Assay type: in vivo, human
# measurement conditions: human, plasma, oral, 200 mg, C1D1, 200 mg QD, n=3; read-out: AUC0-t, Geo-mean
reported property: AUC(0-t) (ng·h/mL)
Answers are plain numbers, in ng·h/mL.

Quick note, AUC(0-t) for CC1(N)CCN(c2cccnc2NC(=O)c2nc(-c3ncccc3C(F)(F)F)cnc2N)CC1 [LXS196] landed at 18700
